- Protocol details: Growth inhibition of human MiaPaCa cells after 48 hrs by SRB assay
- Format: functional
- Condition notes: MIA PaCa-2, 48 h
Measured GI50 of individual entries
Give a bare numeral; the unit nM is implied.

Answered cases to consult:
{"columns": ["Molecule", "Result unit", "GI50"],
 "data": [
  ["Cc1cc2c(cc1C)C(Cl)=C(/C=N/NC(=O)c1cccc(I)c1)CCC2", "nM", 4300],
  ["Cc1cc2c(cc1C)C(Cl)=C(/C=N/NC(=O)c1cccc(Cl)c1)CCC2", "nM", 33600],
  ["COc1ccc(/C=N\\NC(=O)C2=C(Cl)c3ccccc3CCC2)c(OC)c1", "nM", 2700],
  ["CC(=O)O[C@H]1C(=O)[C@@]2(C)[C@H]([C@H](OC(=O)c3ccccc3)[C@]3(O)C[C@H](OC(=O)[C@H](O)[C@@H](NC(=O)c4ccccc4)c4ccccc4)C(C)=C1C3(C)C)[C@]1(OC(C)=O)CO[C@@H]1C[C@@H]2O", "nM", 56],
  ["Cc1cc2c(cc1C)C(Cl)=C(/C=N/NC(=O)c1cccnc1)CCC2", "nM", 1600],
  ["O=C(N/N=C/C1=C(Cl)c2ccccc2CCC1)c1cccc(C(F)(F)F)c1", "nM", 5800]
]}

--- query ---
Record COc1cc(C(=O)N/N=C/C2=C(Cl)c3ccccc3CCC2)c([N+](=O)[O-])cc1OC , field GI50: 10900
